Hello, the source for this data is patent US20120276102A1, in case you need it.

# target_desc: T1, rat IL-21R expressed on cells (rat)
# T1 construct: whole, on cells
# assay_protocol: cell ELISA, CHO cells
# Procedure: A subset of binding proteins was tested for binding to rat, cynomolgus monkey, human IL-21R, or human IL-2R-γ common subunit expressed transiently on the surfaces of CHO-PA-Dukx cells. Cells were transfected 48 hr prior to the assay. […] Cells were incubated with 100 μl TMB until the color reaction reached saturation, stopped with 100 μl of 0.18 M H₂SO₄, and read at A450 on a Perkin Elmer ENVISION™ plate reader.
parameter_measured: A450 (13 nM Ab) (A450)
Write the value in A450 as a bare number.

Completed entries (count: 4):
INSERT INTO assay_data (binder, measurement) VALUES
  ('AbB (antibody, IgG1, V domains shown, As for AbA: IgG1/lambda, CDR3 graft, residue limits derived; also called VHP/VL3) VH: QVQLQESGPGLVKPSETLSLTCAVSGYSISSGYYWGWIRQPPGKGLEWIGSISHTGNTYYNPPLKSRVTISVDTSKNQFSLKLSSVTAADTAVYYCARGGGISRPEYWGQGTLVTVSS VL: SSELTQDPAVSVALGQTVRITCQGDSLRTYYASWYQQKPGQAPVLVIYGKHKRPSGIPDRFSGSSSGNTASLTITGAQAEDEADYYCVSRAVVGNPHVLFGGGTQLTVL', 1.09),
  ('AbR (antibody, human IgG1, V domains shown, CDR3 graft, residue limits derived as for m29; also called VH3/VL18; VH3DM/VL18) VH: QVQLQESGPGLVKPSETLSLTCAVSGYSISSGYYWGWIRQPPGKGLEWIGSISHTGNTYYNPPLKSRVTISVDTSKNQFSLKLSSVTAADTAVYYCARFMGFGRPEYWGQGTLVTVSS VL: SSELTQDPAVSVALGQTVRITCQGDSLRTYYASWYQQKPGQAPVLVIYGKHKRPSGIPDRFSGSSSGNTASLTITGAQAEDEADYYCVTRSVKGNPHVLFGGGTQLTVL', 1.11),
  ('AbI (antibody, IgG1, V domains shown, As for AbA: IgG1/lambda, CDR3 graft, residue limits derived; also called VHP/VL24) VH: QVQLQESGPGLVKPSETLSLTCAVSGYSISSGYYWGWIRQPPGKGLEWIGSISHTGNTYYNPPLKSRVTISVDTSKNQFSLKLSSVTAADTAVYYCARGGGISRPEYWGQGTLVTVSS VL: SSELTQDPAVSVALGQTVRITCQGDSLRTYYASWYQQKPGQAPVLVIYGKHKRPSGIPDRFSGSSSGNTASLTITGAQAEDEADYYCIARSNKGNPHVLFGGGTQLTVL', 1.09),
  ('AbT (antibody, human IgG1, V domains shown, CDR3 graft, residue limits derived as for m29; also called VHP/VL9; VHPTM/VL9) VH: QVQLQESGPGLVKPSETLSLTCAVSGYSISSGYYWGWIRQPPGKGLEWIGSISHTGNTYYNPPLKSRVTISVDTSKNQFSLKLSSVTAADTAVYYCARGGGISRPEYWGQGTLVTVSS VL: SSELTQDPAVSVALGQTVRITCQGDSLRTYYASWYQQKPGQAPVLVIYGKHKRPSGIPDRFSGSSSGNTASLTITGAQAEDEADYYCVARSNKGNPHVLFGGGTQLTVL', 0.994);

Moving on to the next binder.
Request: Please supply the value of reported A450 (13 nM Ab) for the item AbP (antibody, human IgG1, V domains shown, CDR3 graft, residue limits derived as for m29; also called VHP/VL20; VHPTM/VL20) VH: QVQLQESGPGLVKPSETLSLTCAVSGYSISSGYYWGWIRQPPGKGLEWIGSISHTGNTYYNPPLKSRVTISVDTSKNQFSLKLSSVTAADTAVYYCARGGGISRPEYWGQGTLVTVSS VL: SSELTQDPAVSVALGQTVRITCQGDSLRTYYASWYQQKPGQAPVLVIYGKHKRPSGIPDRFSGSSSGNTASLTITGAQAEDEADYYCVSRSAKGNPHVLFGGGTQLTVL
Response: 1.03
